Biological target: NBP46 (Vigna unguiculata, UniProt Q9XFC9)
Sequence (Q9XFC9 entry or part of it): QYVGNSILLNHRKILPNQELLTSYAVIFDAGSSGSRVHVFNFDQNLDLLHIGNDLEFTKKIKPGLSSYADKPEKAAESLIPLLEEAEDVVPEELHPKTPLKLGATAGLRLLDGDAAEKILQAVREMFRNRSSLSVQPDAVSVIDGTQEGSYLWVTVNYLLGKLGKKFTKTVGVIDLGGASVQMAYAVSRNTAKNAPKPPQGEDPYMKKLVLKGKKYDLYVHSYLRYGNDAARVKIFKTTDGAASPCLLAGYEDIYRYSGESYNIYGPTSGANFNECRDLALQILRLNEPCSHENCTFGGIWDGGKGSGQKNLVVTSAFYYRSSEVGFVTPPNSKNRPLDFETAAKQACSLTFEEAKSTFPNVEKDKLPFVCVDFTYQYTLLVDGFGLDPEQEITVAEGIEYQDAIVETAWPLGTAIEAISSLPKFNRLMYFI
Assay: phosphatase (phosphohydrolase) assay of NBP46
Assay type: biochemical, Dolichos biflorus
Conditions: substrate specificity, in words
MEASURED QUANTITY: hydrolysis of phosphate from substrate by NBP46 (phosphohydrolase activity)

compound="O=C[C@H](O)[C@@H](O)[C@H](O)[C@H](O)COP(=O)(O)O [glucose-6-phosphate]" result="no activity"
compound=Nc1ncnc2c1ncn2[C@@H]1O[C@H](COP(=O)(O)O)[C@@H](O)[C@H]1O result="no activity"
compound="O=P(O)(O)OP(=O)(O)O [pyrophosphate]" result="no activity"

The reported measurements were obtained from patent US6465716B2.
